biological target: Delta-type opioid receptor (Homo sapiens, UniProt P41143); experiment: Displacement of [I125]deltorphin from delta-opioid receptor overexpressed in human HEK293 cells
Sequence (P41143 whole entry): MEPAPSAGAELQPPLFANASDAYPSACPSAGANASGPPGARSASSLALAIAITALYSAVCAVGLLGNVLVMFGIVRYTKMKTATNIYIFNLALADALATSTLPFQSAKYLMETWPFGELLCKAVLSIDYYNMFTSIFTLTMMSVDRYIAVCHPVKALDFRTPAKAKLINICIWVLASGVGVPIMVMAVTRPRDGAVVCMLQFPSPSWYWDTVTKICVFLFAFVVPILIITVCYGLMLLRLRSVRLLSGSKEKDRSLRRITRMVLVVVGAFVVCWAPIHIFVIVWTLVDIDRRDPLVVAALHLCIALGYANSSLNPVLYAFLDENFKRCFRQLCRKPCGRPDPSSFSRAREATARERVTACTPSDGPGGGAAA
Labelling: IC50 reported below 1 nM becomes y; at or above becomes n.

Strictly below 1 nM in IC50? CCOC(=O)Nc1ccccc1[C@@H](c1ccc(C(=O)N(CC)CC)cc1)N1CCN(Cc2ccccn2)CC1
n

Strictly below 1 nM in IC50? CCOC(=O)Nc1cccc([C@@H](c2ccc(C(=O)N(C)CC)cc2)N2CCN(Cc3c[nH]c(C)n3)CC2)c1
y

Strictly below 1 nM in IC50? CCOC(=O)Nc1ccc([C@@H](c2ccc(C(=O)N(CC)CC)cc2)N2CCN(Cc3cscn3)CC2)cc1
n

Strictly below 1 nM in IC50? CCN(CC)C(=O)c1ccc([C@H](c2cccc(NC(=O)C3CC3)c2)N2CCN(CCOC)CC2)cc1
n

Strictly below 1 nM in IC50? O=C(Nc1cccc([C@@H](c2ccc(C(=O)N3CCC3)cc2)N2CCN(Cc3ccc(F)cc3)CC2)c1)C1CC1
y
